System under test: UniProt Q12809
Sequence (Q12809 whole entry): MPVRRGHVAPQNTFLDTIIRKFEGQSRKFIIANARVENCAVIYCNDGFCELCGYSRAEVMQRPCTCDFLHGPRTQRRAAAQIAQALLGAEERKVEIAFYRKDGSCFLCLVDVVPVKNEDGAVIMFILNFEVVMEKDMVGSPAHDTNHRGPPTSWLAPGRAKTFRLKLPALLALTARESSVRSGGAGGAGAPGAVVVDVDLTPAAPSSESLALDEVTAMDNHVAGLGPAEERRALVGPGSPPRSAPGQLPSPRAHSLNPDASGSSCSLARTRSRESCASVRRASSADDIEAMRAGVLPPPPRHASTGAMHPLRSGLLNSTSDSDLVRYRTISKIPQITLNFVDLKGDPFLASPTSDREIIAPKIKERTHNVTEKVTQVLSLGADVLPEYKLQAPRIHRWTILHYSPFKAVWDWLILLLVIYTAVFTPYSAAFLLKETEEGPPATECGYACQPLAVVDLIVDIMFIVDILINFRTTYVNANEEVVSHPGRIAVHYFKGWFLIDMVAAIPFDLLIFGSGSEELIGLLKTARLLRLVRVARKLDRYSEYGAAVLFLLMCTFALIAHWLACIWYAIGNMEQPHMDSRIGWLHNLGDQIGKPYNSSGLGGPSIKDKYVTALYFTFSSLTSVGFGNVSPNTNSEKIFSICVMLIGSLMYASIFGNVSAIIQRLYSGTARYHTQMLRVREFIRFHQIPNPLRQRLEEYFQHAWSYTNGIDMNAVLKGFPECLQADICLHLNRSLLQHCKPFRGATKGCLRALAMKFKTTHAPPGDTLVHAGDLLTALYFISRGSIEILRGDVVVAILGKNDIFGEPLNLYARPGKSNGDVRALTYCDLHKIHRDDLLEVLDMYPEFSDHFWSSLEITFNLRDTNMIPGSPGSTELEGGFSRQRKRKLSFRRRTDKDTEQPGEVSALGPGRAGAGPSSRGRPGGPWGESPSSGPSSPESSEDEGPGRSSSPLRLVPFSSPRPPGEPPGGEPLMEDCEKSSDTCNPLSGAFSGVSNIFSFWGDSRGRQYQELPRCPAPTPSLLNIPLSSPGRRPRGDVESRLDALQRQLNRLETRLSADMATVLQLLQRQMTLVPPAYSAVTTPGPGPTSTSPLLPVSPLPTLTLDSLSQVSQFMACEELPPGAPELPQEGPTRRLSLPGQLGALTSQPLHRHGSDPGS
Attribute measured: IC50 (µM)
API: value field is a number in µM; no unit string.

Lab note: need IC50 for COc1ncc(NC(=O)Nc2cnc3ccc(F)cc3c2N(C)C2CCCN(C)C2)cc1Cl (stereo unspecified) on UniProt Q12809, anyone have it? 9

---

Measurement notes: Half-life in Balb/c mouse at 1 mg/kg, iv administered as cassette dosing
Type: ADME, organism-based
Assay setup: in vivo
Attribute measured: half-life (h)
API: value field is a number in h; no unit string.

Please report the recorded half-life for C[C@H]1COC[C@H](C)N1c1c(NC(=O)Nc2ccnc(C(F)(F)F)c2)cnc2cc(Cl)nn12 . 1.9
